Target: recombinant human PEPD (Homo sapiens (Human), UniProt P12955)
Sequence (P12955 whole entry): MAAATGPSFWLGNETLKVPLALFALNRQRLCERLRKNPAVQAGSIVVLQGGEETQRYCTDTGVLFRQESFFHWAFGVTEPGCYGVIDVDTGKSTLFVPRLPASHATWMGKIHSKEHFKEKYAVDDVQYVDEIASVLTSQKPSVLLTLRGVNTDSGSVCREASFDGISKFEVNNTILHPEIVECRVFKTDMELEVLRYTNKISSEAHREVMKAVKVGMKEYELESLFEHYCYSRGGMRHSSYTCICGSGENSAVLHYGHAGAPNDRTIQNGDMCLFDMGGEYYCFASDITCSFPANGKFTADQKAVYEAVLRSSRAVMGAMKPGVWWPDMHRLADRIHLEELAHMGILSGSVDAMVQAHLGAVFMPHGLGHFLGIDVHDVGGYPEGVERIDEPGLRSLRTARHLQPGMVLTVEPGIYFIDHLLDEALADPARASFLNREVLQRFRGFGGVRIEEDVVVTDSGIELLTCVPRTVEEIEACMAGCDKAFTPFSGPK
Experiment: PEPD substrate assay (Ala-Pro cleavage, L-alanine assay kit)
Details: 50 nM recombinant human PEPD, Ala-Pro 40 μM, 25° C.
Experimental: Protein purification. Human prolidase (PEPD) was generated and purified. XPNPEP1 in pET15-b containing a 6× His tag was expressed in E. coli Rosetta DE3 cells. Substrate assays. For the PEPD assay, a solution of substrate (Ala-Pro) was prepared in DMSO. […] Substrate cleavage was measured as increasing fluorescence signal (Ex/Em: 380/460 nm) recorded at 25° C. for 20 mins. […]
Quantity: IC50 (µM)

Take a look at these entries with their results.
COC(=O)[C@@H]1C[C@H](C)CN1C(=O)[C@@H](O)[C@H](N)CC(C)C [CQ38] :: 2.2
COC(=O)[C@@H]1CCCN1C(=O)[C@@H](O)[C@H](N)CC(C)(C)C [CQ45] :: 1.5
CC(C)C[C@H](NC(=O)[C@@H]1CCCN1C(=O)[C@@H](O)[C@H](N)CC(C)C)C(=O)NCCc1ccc(-c2ccccc2)cc1 [CQ119] :: 14
COC(=O)[C@@H]1CCCN1C(=O)[C@@H](O)[C@H](N)Cc1ccccc1 [CQ42] :: 7.6

a: COC(=O)[C@@H]1CCCN1C(=O)[C@@H](O)[C@H](N)c1ccc2ccoc2c1 [CQ69]
b: COC(=O)[C@@H]1CCCN1C(=O)[C@@H](O)[C@H](N)CCCCO [CQ75]
Decide: a or b , by lowest recorded IC50. Select an item and report its label. b
(b: 0.3 µM, a: 1.8 µM)

I: COC(=O)[C@@H]1CCCN1C(=O)[C@@H](O)[C@H](N)C1CC1 [CQ62]
II: CONC(=O)[C@@H]1CCCN1C(=O)[C@@H](O)[C@H](N)CC(C)C [CQ55]
III: CC(C)C[C@H](NC(=O)[C@@H]1CCCN1C(=O)[C@@H](O)[C@H](N)CC(C)C)C(=O)NCCF [CQ114]
// ranking: key=IC50, reverse=True Dear reader, please state the labels in the requested order. I, II, III

I: CCCC[C@@H](N)[C@H](O)C(=O)N1CCC[C@H]1C(=O)OC [CQ63]
II: COC(=O)[C@@H]1CCCN1C(=O)[C@@H](O)[C@H](N)CCC(F)(F)F [CQ43]
III: COC(=O)[C@@H]1CCCN1C(=O)[C@@H](O)[C@H](N)C12CC3CC(CC(C3)C1)C2 [CQ47]
IV: CC(C)C[C@H](NC(=O)[C@@H]1CCCN1C(=O)[C@@H](O)[C@H](N)CC(C)C)C(=O)NC(C)(C)C [CQ115]
V: COC(=O)[C@@H]1CCCN1C(=O)[C@@H](O)[C@H](N)c1cccs1 [CQ70]
Order by IC50, ascending. Dear reader, please state the labels in the requested order. I, II, V, IV, III
(I: 0.53 µM, II: 1.3 µM, V: 2 µM, IV: 3.7 µM, III: 12 µM)

a: CC(C)C[C@H](NC(=O)[C@@H]1CCCN1C(=O)[C@@H](O)[C@H](N)CC(C)C)C(=O)NS(=O)(=O)N(C)C [CQ113]
b: COC(=O)[C@@H]1CC2(CC2)CN1C(=O)[C@@H](O)[C@H](N)CC(C)C [CQ36]
For this pair, a and b , which shows a numerically higher IC50? Select an item and report its label. b
(b: 1 µM, a: 0.56 µM)

---

Target: recombinant human PEPD (Homo sapiens (Human), UniProt P12955)
Experiment: PEPD substrate assay (Ala-Pro cleavage, L-alanine assay kit)
Details: 50 nM recombinant human PEPD, Ala-Pro 40 μM, 25° C.
Quantity: IC50 (µM)

COC(=O)[C@@H]1CCCN1C(=O)[C@@H](O)[C@H](N)c1ccco1 [CQ68] :: 1.7
CC(C)C[C@H](NC(=O)[C@@H]1CCCN1C(=O)[C@@H](O)[C@H](N)CC(C)C)C(=O)N(C)C [CQ109] :: 4
CONC(=O)[C@H](CC(C)C)NC(=O)[C@@H]1CCCN1C(=O)[C@@H](O)[C@H](N)CC(C)C [CQ111] :: 14
CC(C)CCNC(=O)[C@@H]1CCCN1C(=O)[C@@H](O)[C@H](N)CC(C)C [CQ95] :: 0.29
COC(=O)[C@@H](NC(=O)[C@@H]1CCCN1C(=O)[C@@H](O)[C@H](N)CC(C)C)C(C)C [CQ78] :: 1.2
CC(C)C[C@@H](N)[C@H](O)C(=O)N1CCC[C@H]1c1nnn[nH]1 [CQ99] :: 6.2

a: CC(C)C[C@H](NC(=O)[C@@H]1CCCN1C(=O)[C@@H](O)[C@H](N)CC(C)C)C(N)=O [CQ96]
b: COC(=O)[C@@H]1CCCN1C(=O)[C@@H](O)[C@H](N)C(C)C [CQ59]
Decide: a or b , by lowest recorded IC50. Select an item and report its label. b
(b: 1.8 µM, a: 7.5 µM)

A: CC(C)C[C@H](NC(=O)[C@@H]1CCCN1C(=O)[C@@H](O)[C@H](N)CC(C)C)C(=O)NCCc1ccc2ccccc2c1 [CQ117]
B: COC(=O)[C@@H]1C[C@H](F)CN1C(=O)[C@@H](O)[C@H](N)CC(C)C [CQ35]
C: CC(C)C[C@@H](N)[C@H](O)C(=O)N1CCC[C@H]1C(N)=O [CQ49]
D: COC(=O)[C@@H]1CCCN1C(=O)[C@@H](O)[C@H](N)c1ccccc1 [CQ64]
// ranking: key=IC50, reverse=True Dear reader, please state the labels in the requested order. A, D, B, C
(A: 7.6 µM, D: 2.8 µM, B: 0.84 µM, C: 0.28 µM)

1: CC(C)CCNC(=O)[C@H](CC(C)C)NC(=O)[C@@H]1CCCN1C(=O)[C@@H](O)[C@H](N)CC(C)C [CQ110]
2: COC(=O)[C@H](CC(C)C)NC(=O)[C@@H](O)[C@H](N)CC(C)C [CQ52]
Decide: 1 or 2 , by lowest recorded IC50. Select an item and report its label. 1

---

Tested on: MV4;11 WT cells
Assay: CellTiter-Glo cell viability, WT MV4;11 cells
Assay type: cell-based
Settings: Homo sapiens, MV4-11; 24 h, CTG
Quantity: IC50 (nM)
Quick note: give the figure in nM, leave out the unit.

COC(=O)[C@@H](NC(=O)[C@@H]1CCCN1C(=O)[C@@H](O)[C@H](N)CC(C)C)C(C)C :: 450

Name the recorded IC50 for CC[C@H](C)[C@H](NC(=O)[C@@H]1CCCN1C(=O)[C@@H](O)[C@H](N)CC(C)C)C(=O)OC . 600

Ok, now COC(=O)[C@H](Cc1ccccc1)NC(=O)[C@@H]1CCCN1C(=O)[C@@H](O)[C@H](N)CC(C)C 660

Ok, now COC(=O)[C@@H]1CCCN1C(=O)[C@@H](O)[C@H](N)CC(C)C 3800

Ok, now COC(=O)[C@H](C)NC(=O)[C@@H]1CCCN1C(=O)[C@@H]1CCCN1C(=O)[C@@H](O)[C@H](N)CC(C)C 35000

Ok, now COC(=O)[C@H](CC(C)C)NC(=O)[C@@H]1CCCN1C(=O)[C@@H](O)[C@H](N)CC(C)C 270

---

Target: recombinant human PEPD (Homo sapiens (Human))
Test: PEPD substrate assay (Ala-Pro cleavage, L-alanine assay kit)
Settings: 50 nM recombinant human PEPD, Ala-Pro 40 μM, 25° C.
Quantity: pIC50
Please keep in mind that pIC50 is minus log10 of the molar concentration; only the number is needed.

Take a look at these entries with their results.
COC(=O)[C@H](Cc1ccccc1)NC(=O)[C@@H]1CCCN1C(=O)[C@@H](O)[C@H](N)CC(C)C [CQ79] :: 6.14
COC(=O)[C@@H]1CCCN1C(=O)[C@@H](O)[C@H](N)CC(C)C [CQ31] :: 6.17
CC[C@H](C)[C@H](NC(=O)[C@@H]1CCCN1C(=O)[C@@H](O)[C@H](N)CC(C)C)C(=O)OC [CQ81] :: 6.08
COC(=O)[C@H](C)NC(=O)[C@@H]1CCCN1C(=O)[C@@H]1CCCN1C(=O)[C@@H](O)[C@H](N)CC(C)C [CQ50] :: 4.96

Please turn your attention to the following entry.
Report pIC50 for CC(C)C[C@H](NC(=O)[C@@H]1CCCN1C(=O)[C@@H](O)[C@H](N)CC(C)C)C(=O)NCCc1ccccc1 [CQ116] tested on recombinant human PEPD (Homo sapiens (Human)). 5.24

---

Target: recombinant human PEPD (Homo sapiens (Human))
Assay: PEPD substrate assay (Ala-Pro cleavage, L-alanine assay kit)
Assay type: biochemical
Settings: 50 nM recombinant human PEPD, Ala-Pro 40 μM, 25° C.
compounds and their reported IC50
Quick note: give the figure in µM, leave out the unit.

CC(C)C[C@H](NC(=O)[C@@H]1CCCN1C(=O)[C@@H](O)[C@H](N)CC(C)C)C(=O)N1CCC1 [CQ112] :: 66

Please turn your attention to the following entry.
Report IC50 for COC(=O)[C@H](CC(C)C)NC(=O)[C@@H]1CCCN1C(=O)[C@@H](O)[C@H](N)CC(C)C [CQ80] tested on recombinant human PEPD (Homo sapiens (Human)). 0.91
